# measuredTarget: base coil K4 (four heptad repeats), YS2H bait fused to Aga2 with C-terminal FLAG tag (yeast)
# assayDetails: predicted from YS2H (flow cytometry of Myc and FLAG tags, Langmuir equation)
# reported pKd; entries follow
Reminder that pKd is minus the log10 of a molar concentration.

VSALEKEVSALEKEVSALEKEVSALEKEVSALEKEEQKLISEEDL (modifications not checked) [acid coil E5 (five heptad repeats), secreted YS2H prey with C-terminal Myc tag]    7.74

We next turn to a different binder, shown below.
Incoming: Given the entry VSALEKEVSALEKEVSALEKEVSALEKEEQKLISEEDL (modifications not checked) [acid coil E4 (four heptad repeats), secreted YS2H prey with C-terminal Myc tag] , report its measured pKd.
Outgoing: 6.82
